Measured % Inhibition @ 10 μM, listed per entry for reference.
# Tested on: single-round infectious HIV-1 reporter virus
# ASSAY_NOTES: microbe, parasite or virus in culture
# Type: cell-based
# CONDITION_LABEL: Table 4; HeLa CD4 CCR5 cells, luciferase reporter virus, 3 days after infection

A selection of reference data follows.
>>> df
                                   molecule                          target_or_system  experimental_endpoint  observed_measurement
0  COc1ccc(Br)c2[nH]cc(C(=O)C(=O)N3CCN(C(=O)c4ccccn4)C[C@H]3C)c12  single-round infectious HIV-1 reporter virus   % Inhibition @ 10 μM                  >98%
1  CC1CN(C(=O)c2ccccn2)CCN1C(=O)C(=O)c1c[nH]c2c(F)ccc(F)c12 (stereo not drawn) [Entry 196]  single-round infectious HIV-1 reporter virus   % Inhibition @ 10 μM                  >98%
2  COc1ccc(F)c2c(C(=O)C(=O)N3CCN(C(=O)c4ccccn4)C[C@H]3C)c[nH]c12  single-round infectious HIV-1 reporter virus   % Inhibition @ 10 μM                  >98%
3  COC(=O)c1cccc2c(C(=O)C(=O)N3CCN(C(=O)c4ccc(Br)o4)CC3C)c[nH]c12 (stereo not drawn)  single-round infectious HIV-1 reporter virus   % Inhibition @ 10 μM                  >98%
4  CC1CN(C(=O)c2ccccn2)CCN1C(=O)C(=O)c1c[nH]c2cccc(F)c12 (stereo not drawn)  single-round infectious HIV-1 reporter virus   % Inhibition @ 10 μM                  >98%
5  CC1CN(C(=O)c2ccc(Br)o2)CCN1C(=O)C(=O)c1c[nH]c2c(F)ccc(F)c12 (stereo not drawn)  single-round infectious HIV-1 reporter virus   % Inhibition @ 10 μM                  >98%
6  CC1CN(C(=O)c2ccccn2)CCN1C(=O)C(=O)c1c[nH]c2cc(Cl)ccc12 (stereo not drawn)  single-round infectious HIV-1 reporter virus   % Inhibition @ 10 μM                   88%
7  CC1CN(C(=O)c2ccccn2)CCN1C(=O)C(=O)c1c[nH]c2cccc(Br)c12 (stereo not drawn)  single-round infectious HIV-1 reporter virus   % Inhibition @ 10 μM                   50%

[ask] What does the record list as % Inhibition @ 10 μM for "COc1cccc2[nH]cc(C(=O)C(=O)N3CCN(C(=O)c4ccccn4)C[C@H]3C)c12" ?
[reply] >98%

[ask] Same for "Cc1cccc2c(C(=O)C(=O)N3CCN(C(=O)c4ccccn4)C[C@H]3C)c[nH]c12"
[reply] >98%

[ask] Same for CC1CN(C(=O)c2ccccn2)CCN1C(=O)C(=O)c1c[nH]c2c(F)cccc12 (stereo not drawn)
[reply] >98%

[ask] Same for "COc1cccc2c(C(=O)C(=O)N3CCN(C(=O)c4ccccn4)C[C@H]3C)c[nH]c12"
[reply] >98%

[ask] Same for COc1ccc(OC)c2c(C(=O)C(=O)N3CCN(C(=O)c4ccc(Br)o4)CC3C)c[nH]c12 (stereo not drawn)
[reply] >98%

[ask] Same for "COc1ccc(Cl)c2[nH]cc(C(=O)C(=O)N3CCN(C(=O)c4ccccn4)C[C@H]3C)c12"
[reply] >98%

[ask] Same for CC1CN(C(=O)c2ccccn2)CCN1C(=O)C(=O)c1c[nH]c2cccc(Cl)c12 (stereo not drawn)
[reply] 80%
